System: wheat powdery mildew
Test: Test of control effect on wheat powdery mildew (Test Example 1)
Assay type: in vivo
Conditions: wettable powder 125 mg/l, 100 liters/10 a, sprinkled on wheat seedlings (Nourin 64) before inoculation; examined 9th to 14th day after inoculation
assay metric: Control Value (%)
Report the value in % with no unit label.

Lookup: Look up and report Control Value, with wheat powdery mildew as system, for CC(Cc1ccc(C(F)(F)F)c(F)c1F)CN(C)Cc1ccc(Cl)nc1 (stereo not shown)
Found: 100

Lookup: Specify Control Value for COc1cccc(CC(C)CN(C)Cc2ccc(Cl)nc2)c1 (stereo not shown) , system wheat powdery mildew.
Found: 0

Lookup: Please look at CC(Cc1ccc(F)c(OC(F)(F)F)c1)CN(C)Cc1ccc(Cl)nc1 (stereo not shown) and tell me its recorded Control Value on wheat powdery mildew.
Found: 100

Lookup: Provide the reported Control Value (system: wheat powdery mildew) for CC(Cc1ccc2c(c1)OC(F)(F)O2)CN(C)Cc1ccc(Cl)nc1 (stereo not shown)
Found: 100

----------
Tested on: Rhynchosporium secalis
Assay: Antifungal activity test against various pathogenic fungi, hypha extension on PDA plates (Test Example 3)
Format: cell-based
Details: 100 ppm in PDA culture medium, cultured 1 to 7 days, read-out: Growth Inhibition R.s (100)
Task for the reader: assign each of the following compounds its reported inhibition at 100 ppm.

Lookup: Fill in: inhibition at 100 ppm on Rhynchosporium secalis, entry CC(Cc1ccc(OC(F)(F)F)c(F)c1)CN(C)Cc1ccc(Cl)nc1 (stereo not drawn)
Found: > 90%

Lookup: Look up Rhynchosporium secalis data: inhibition at 100 ppm of CC(Cc1cc(F)cc(Cl)c1)CN(C)Cc1ccc(Cl)nc1 (stereo not drawn) , then report it.
Found: > 90%

Lookup: GET inhibition at 100 ppm | system: Rhynchosporium secalis | item: CC(Cc1cccc(F)c1)CN(C)Cc1ccc(Cl)nc1 (stereo not drawn) [(c-4), reference compound]
Found: 20 to 40%

Lookup: Lab note: Rhynchosporium secalis assay, enter inhibition at 100 ppm for CC(Cc1cc(F)c(OC(F)(F)F)c(F)c1)CN(C)Cc1ccc(Cl)nc1 (stereo not drawn) here
Found: 70 to 90%

Lookup: Send back Rhynchosporium secalis inhibition at 100 ppm of CC(Cc1ccccc1Cl)CN(C)Cc1ccc(Cl)nc1 (stereo not drawn) [(c-2), reference compound] only.
Found: 20 to 40%

Lookup: Please report the measured inhibition at 100 ppm for CC(Cc1ccc(OC(F)(F)F)cc1)CN(C)Cc1ccc(Cl)nc1 (stereo not drawn) tested on Rhynchosporium secalis.
Found: > 90%

----------
Test system: wheat powdery mildew
Experiment: Test of control effect on wheat powdery mildew (Test Example 1)
Type: in vivo
Settings: Triticum aestivum; wettable powder 125 mg/l, 100 liters/10 a, sprinkled on wheat seedlings (Nourin 64) before inoculation; examined 9th to 14th day after inoculation
# cutoff 50% applies to pest or weed control at 125 µg/mL; >= gives satisfied, < gives not satisfied

Lookup: pest or weed control at 125 µg/mL >= 50% for CC(Cc1ccccc1Cl)CN(C)Cc1ccc(Cl)nc1 (stereo not shown) [(c-2), reference compound] ?
Found: not satisfied

Lookup: Is pest or weed control at 125 µg/mL at least 50%? Consider CC(Cc1cccc(Cl)c1Cl)CN(C)Cc1ccc(Cl)nc1 (stereo not shown) [(c-1)]
Found: not satisfied

Lookup: # bool: pest or weed control at 125 µg/mL of Cc1ccc(CC(C)CN(C)Cc2ccc(Cl)nc2)cc1C (stereo not shown) [(m-1)] >= 50%
Found: not satisfied

Lookup: Is pest or weed control at 125 µg/mL for CC(Cc1ccc2c(c1)OCO2)CN(C)Cc1ccc(Cl)nc1 (stereo not shown) [(d)] at or above 50%?
Found: not satisfied

Lookup: For this molecule, is measured pest or weed control at 125 µg/mL 50% or higher? CC(Cc1cccc(F)c1)CN(C)Cc1ccc(Cl)nc1 (stereo not shown) [(c-4), reference compound]
Found: not satisfied

Lookup: Confirm if pest or weed control at 125 µg/mL reported for the molecule CC(Cc1cccc(C(F)(F)F)c1)CN(C)Cc1ccc(Cl)nc1 (stereo not shown) [(a)] is 50% or above.
Found: satisfied

Lookup: Exam item: decide whether the reported pest or weed control at 125 µg/mL for CC(Cc1cc(F)cc(Cl)c1)CN(C)Cc1ccc(Cl)nc1 (stereo not shown) [Compound I-21] is at least 50%.
Found: satisfied

Lookup: In plain terms: is recorded pest or weed control at 125 µg/mL at least 50% for CC(Cc1ccc(C(F)(F)F)c(F)c1)CN(C)Cc1ccc(Cl)nc1 (stereo not shown) [Compound I-9] ?
Found: satisfied

Lookup: Check the entry CC(Cc1cc(F)c(OC(F)(F)F)c(F)c1)CN(C)Cc1ccc(Cl)nc1 (stereo not shown) [Compound I-20] : does pest or weed control at 125 µg/mL equal or exceed 50%?
Found: satisfied

Lookup: Test whether the molecule CC(Cc1cccc(OC(F)(F)F)c1)CN(C)Cc1ccc(Cl)nc1 (stereo not shown) [(b)] records pest or weed control at 125 µg/mL of 50% or higher.
Found: satisfied

Lookup: Can CC(Cc1ccc(OC(F)(F)F)cc1)CN(C)Cc1ccc(Cl)nc1 (stereo not shown) [Compound I-12] be said to have pest or weed control at 125 µg/mL at or above 50%?
Found: satisfied

Lookup: Has CC(Cc1ccc(OC(F)(F)F)c(F)c1)CN(C)Cc1ccc(Cl)nc1 (stereo not shown) [Compound I-17] a recorded pest or weed control at 125 µg/mL greater than or equal to 50%?
Found: satisfied
